- Target Under Test: cytoplasmic domain of the human CSF-1R (Homo sapiens, UniProt P07333)
- Construct: Recombinant protein corresponding to the cytoplasmic domain of the human CSF-1R; purchased Invitrogen Corporation, Carlsbad, Calif; PV3249
- Sequence (P07333 539-972 limits assumed): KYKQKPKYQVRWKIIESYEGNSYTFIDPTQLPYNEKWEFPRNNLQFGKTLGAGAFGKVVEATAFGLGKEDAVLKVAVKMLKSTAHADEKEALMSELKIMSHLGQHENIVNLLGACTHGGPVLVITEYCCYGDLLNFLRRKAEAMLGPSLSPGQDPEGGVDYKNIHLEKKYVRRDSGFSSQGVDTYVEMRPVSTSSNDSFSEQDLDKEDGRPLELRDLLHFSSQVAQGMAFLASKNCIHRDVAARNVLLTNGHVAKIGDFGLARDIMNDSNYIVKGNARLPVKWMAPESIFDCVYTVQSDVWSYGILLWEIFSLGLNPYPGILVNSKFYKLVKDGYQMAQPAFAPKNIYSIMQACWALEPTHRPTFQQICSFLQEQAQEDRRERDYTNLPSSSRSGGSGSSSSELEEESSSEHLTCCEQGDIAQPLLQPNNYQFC
- Test Summary: In vitro kinase assay for CSF-1R (AlphaScreen)
- Format: biochemical
- Condition Description: tested at about 1 μM; read-out: CSF1RK 1 percent inhibition
Quantity: inhibition at 1 µM (%)

compound="Cn1cc(-c2cc(Oc3ccc4nc(N[C@@H]5CCCC[C@H]5O)sc4c3)cnc2Cl)cn1 [Compound 102]" reading=86
compound="Cn1cc(-c2nccc(Oc3ccc4nc(N[C@@H]5CCCC[C@H]5O)sc4c3)n2)cn1 [Compound 23]" reading=100
compound="O[C@@H]1CCCC[C@H]1Nc1nc2ccc(Oc3cncc(-c4cnccn4)c3)cc2s1 [Compound 84]" reading=100
compound="Clc1cc(Oc2ccc3nc(NCC4CCCCC4)sc3c2)ncn1 [Compound 2]" reading=78
compound="O[C@@H]1CCCC[C@H]1Nc1nc2ccc(Oc3cncc(-c4cnn(CCN5CCOCC5)c4)n3)cc2s1 [Compound 95]" reading=100
